Experiment: Pharmacokinetics of gaboxadol in beagle dogs, IV or PO, with or without co-administered tryptophan
Format: in vivo
Details: male, beagle, dog, in vivo, po, 50 mg/kg, Fa (bioavailability)
attributeMeasured: bioavailability (%)
Numeric answer only, unit % assumed.

Problem: Which bioavailability reading was recorded for the compound Oc1noc2c1CCNC2 ?
Solution: 78.2

====

Assay: Pharmacokinetics of gaboxadol in beagle dogs, IV or PO, with or without co-administered tryptophan
Assay type: in vivo
Conditions: male, beagle, dog, in vivo, po, 150 mg/kg, Tmax
attributeMeasured: Tmax (h)
Numeric answer only, unit h assumed.

Problem: Which Tmax reading was recorded for the compound Oc1noc2c1CCNC2 ?
Solution: 1.5

====

Assay: Pharmacokinetics of gaboxadol in beagle dogs, IV or PO, with or without co-administered tryptophan
Assay type: in vivo
Conditions: male, beagle, dog, in vivo, iv, 2.5 mg/kg
Method: Prior to commencement of the studies the protocols were approved by the Animal Welfare Committee, appointed by the Danish Ministry of Justice and all animal procedures were carried out in compliance with EC Directive 86/609/EEC, the Danish law regulating experiments on animals and NIH Guidelines for the Care and Use of Laboratory Animals. […] The pharmacokinetics (PK) was evaluated in WinNonlin. […]
attributeMeasured: clearance (mL/min/kg)
Numeric answer only, unit mL/min/kg assumed.

Problem: Which clearance reading was recorded for the compound Oc1noc2c1CCNC2 ?
Solution: 7.6

====

Assay: Pharmacokinetics of gaboxadol in beagle dogs, IV or PO, with or without co-administered tryptophan
Type: in vivo
Conditions: male, beagle, dog, in vivo, iv, 2.5 mg/kg, AUC
attributeMeasured: AUC (ng·h/mL)
Numeric answer only, unit ng·h/mL assumed.

Problem: Which AUC reading was recorded for the compound Oc1noc2c1CCNC2 [gaboxadol] ?
Solution: 5620

====

Test: Pharmacokinetics of gaboxadol in rats after PO dosing, with or without 5-HTP pre-incubation
Assay type: in vivo, Sprague-Dawley rats
Details: male, Sprague-Dawley, rat, in vivo, po, Tmax ± S.E.M.
attributeMeasured: Tmax (h)
Numeric answer only, unit h assumed.

Problem: Which Tmax reading was recorded for the compound Oc1noc2c1CCNC2 ?
Solution: 1.05

====

Assay: Pharmacokinetics of gaboxadol in rats after PO dosing, with or without 5-HTP pre-incubation
Format: in vivo, Sprague-Dawley rats
Settings: male, Sprague-Dawley, rat, in vivo, po, 5 mg/kg, Cmax ± S.E.M.
attributeMeasured: Cmax

Problem: Which Cmax reading was recorded for the compound Oc1noc2c1CCNC2 ?
Solution: 2060 ng/mL

====

Assay: Pharmacokinetics of gaboxadol in beagle dogs, IV or PO, with or without co-administered tryptophan
Type: in vivo
Details: male, beagle, dog, in vivo, po, 2.5 mg/kg, Tmax
attributeMeasured: Tmax (min)
Numeric answer only, unit min assumed.

Problem: Which Tmax reading was recorded for the compound Oc1noc2c1CCNC2 [gaboxadol] ?
Solution: 27.6

====

Experiment: Pharmacokinetics of gaboxadol in rats after IV dosing, with or without 5-HTP pre-incubation
Type: in vivo, Sprague-Dawley rats
Details: male, Sprague-Dawley, rat, in vivo, iv, 2.5 mg/kg
attributeMeasured: Tmax (min)
Numeric answer only, unit min assumed.

Problem: Which Tmax reading was recorded for the compound Oc1noc2c1CCNC2 [gaboxadol] ?
Solution: 5

====

Experiment: Pharmacokinetics of gaboxadol in beagle dogs, IV or PO, with or without co-administered tryptophan
Assay type: in vivo
Conditions: male, beagle, dog, in vivo, po, 2.5 mg/kg, AUC
attributeMeasured: AUC (ng·h/mL)
Numeric answer only, unit ng·h/mL assumed.

Problem: Which AUC reading was recorded for the molecule Oc1noc2c1CCNC2 [gaboxadol] ?
Solution: 4720
